Recorded measurements of inhibition of growth at 30 µM, one per entry
# Tested on: PC-3
# METHOD: Cytotoxicity against human PC3 cells at 30 uM after 48 hrs by SRB assay
# Format: functional
# EXPERIMENTAL SETUP: PC-3, 48 h, read-out: GI
Give your result in % as a bare value.

CHEMICAL STRING	inhibition of growth at 30 µM [%]
C=C(C)[C@@H]1CC[C@]2(C(=O)O)CC[C@]3(C)[C@H](CC[C@@H]4[C@@]5(C)CC[C@H](OCc6cn(-c7ccc(CC#N)cc7)nn6)C(C)(C)[C@@H]5CC[C@]43C)[C@@H]12	48
C=C(C)[C@@H]1CC[C@]2(C(=O)O)CC[C@]3(C)[C@H](CC[C@@H]4[C@@]5(C)CC[C@H](OCc6cn(-c7ccc(OC)cc7)nn6)C(C)(C)[C@@H]5CC[C@]43C)[C@@H]12	8
C=C(C)[C@@H]1CC[C@]2(C(=O)O)CC[C@]3(C)[C@H](CC[C@@H]4[C@@]5(C)CC[C@H](OCc6cn(-c7cccc(I)c7)nn6)C(C)(C)[C@@H]5CC[C@]43C)[C@@H]12	24
C=C(C)[C@@H]1CC[C@]2(C(=O)O)CC[C@]3(C)[C@H](CC[C@@H]4[C@@]5(C)CC[C@H](OCc6cn(-c7cccc(OC)c7)nn6)C(C)(C)[C@@H]5CC[C@]43C)[C@@H]12	10

Tested on PC-3: C=C(C)[C@@H]1CC[C@]2(C(=O)O)CC[C@]3(C)[C@H](CC[C@@H]4[C@@]5(C)CC[C@H](OCc6cn(-c7ccccc7C#N)nn6)C(C)(C)[C@@H]5CC[C@]43C)[C@@H]12 . Observed inhibition of growth at 30 µM: 71

* * *

# System: PC-3
# METHOD: Cytotoxicity against human PC3 cells at 50 uM after 48 hrs by SRB assay
# Assay type: functional
# EXPERIMENTAL SETUP: PC-3, 48 h, read-out: GI
// label = Condition met if inhibition of growth at 50 µM is not less than 50%, otherwise Condition not met

Is inhibition of growth at 50 µM at least 50%? Consider C=C(C)[C@@H]1CC[C@]2(C(=O)O)CC[C@]3(C)[C@H](CC[C@@H]4[C@@]5(C)CC[C@H](O)C(C)(C)[C@@H]5CC[C@]43C)[C@@H]12 [BETULINIC ACID]
Condition met

Is inhibition of growth at 50 µM at least 50%? Consider C=C(C)[C@@H]1CC[C@]2(C(=O)O)CC[C@]3(C)[C@H](CC[C@@H]4[C@@]5(C)CC[C@H](OCc6cn(-c7cc(C)cc(O)c7)nn6)C(C)(C)[C@@H]5CC[C@]43C)[C@@H]12
Condition met

Is inhibition of growth at 50 µM at least 50%? Consider C=C(C)[C@@H]1CC[C@]2(C(=O)O)CC[C@]3(C)[C@H](CC[C@@H]4[C@@]5(C)CC[C@H](OCc6cn(-c7cccc(OC)c7)nn6)C(C)(C)[C@@H]5CC[C@]43C)[C@@H]12
Condition not met

Is inhibition of growth at 50 µM at least 50%? Consider C=C(C)[C@@H]1CC[C@]2(C(=O)O)CC[C@]3(C)[C@H](CC[C@@H]4[C@@]5(C)CC[C@H](OCc6cn(-c7cccc(I)c7)nn6)C(C)(C)[C@@H]5CC[C@]43C)[C@@H]12
Condition not met

Is inhibition of growth at 50 µM at least 50%? Consider C=C(C)[C@@H]1CC[C@]2(C(=O)O)CC[C@]3(C)[C@H](CC[C@@H]4[C@@]5(C)CC[C@H](OCc6cn(-c7ccccc7C#N)nn6)C(C)(C)[C@@H]5CC[C@]43C)[C@@H]12
Condition met

Is inhibition of growth at 50 µM at least 50%? Consider C=C(C)[C@@H]1CC[C@]2(C(=O)O)CC[C@]3(C)[C@H](CC[C@@H]4[C@@]5(C)CC[C@H](OCc6cn(C7O[C@H](COC(C)=O)[C@@H](OC(C)=O)[C@H](OC(C)=O)[C@H]7OC(C)=O)nn6)C(C)(C)[C@@H]5CC[C@]43C)[C@@H]12 (stereo not given in full)
Condition not met

Is inhibition of growth at 50 µM at least 50%? Consider C=C(C)[C@@H]1CC[C@]2(C(=O)O)CC[C@]3(C)[C@H](CC[C@@H]4[C@@]5(C)CC[C@H](OCc6cn(-c7ccc(OC)cc7)nn6)C(C)(C)[C@@H]5CC[C@]43C)[C@@H]12
Condition met

Is inhibition of growth at 50 µM at least 50%? Consider C=C(C)[C@@H]1CC[C@]2(C(=O)O)CC[C@]3(C)[C@H](CC[C@@H]4[C@@]5(C)CC[C@H](OCc6cn(-c7ccc(CC#N)cc7)nn6)C(C)(C)[C@@H]5CC[C@]43C)[C@@H]12
Condition met

Is inhibition of growth at 50 µM at least 50%? Consider C=C(C)[C@@H]1CC[C@]2(C(=O)O)CC[C@]3(C)[C@H](CC[C@@H]4[C@@]5(C)CC[C@H](OCc6cn(-c7ccc8c(c7)OCO8)nn6)C(C)(C)[C@@H]5CC[C@]43C)[C@@H]12
Condition met
